Catalogue of % of control after 240 min (intact peptide by RP-HPLC after incubation with NEP) values
- test_system: purified neutral endopeptidase (NEP) (UniProt P08473)
- Sequence (P08473 52-750 limits assumed): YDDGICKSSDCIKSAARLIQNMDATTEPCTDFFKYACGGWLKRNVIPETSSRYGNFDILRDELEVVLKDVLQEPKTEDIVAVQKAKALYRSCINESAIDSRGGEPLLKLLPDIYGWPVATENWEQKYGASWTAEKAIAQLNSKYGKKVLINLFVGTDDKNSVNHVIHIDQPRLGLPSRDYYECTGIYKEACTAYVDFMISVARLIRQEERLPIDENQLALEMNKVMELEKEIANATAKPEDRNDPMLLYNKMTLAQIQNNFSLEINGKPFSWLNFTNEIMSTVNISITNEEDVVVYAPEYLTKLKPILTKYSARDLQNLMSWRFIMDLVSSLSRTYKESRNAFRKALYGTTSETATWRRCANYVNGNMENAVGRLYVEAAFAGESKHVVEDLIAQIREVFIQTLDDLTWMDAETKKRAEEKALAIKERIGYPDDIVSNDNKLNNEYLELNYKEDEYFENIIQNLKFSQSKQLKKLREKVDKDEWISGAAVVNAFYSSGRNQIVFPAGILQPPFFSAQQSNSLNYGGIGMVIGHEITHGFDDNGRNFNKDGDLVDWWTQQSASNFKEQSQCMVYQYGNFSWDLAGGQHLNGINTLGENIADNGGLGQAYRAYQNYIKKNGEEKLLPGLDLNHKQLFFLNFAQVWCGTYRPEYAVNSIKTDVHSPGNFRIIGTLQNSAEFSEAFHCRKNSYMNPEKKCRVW
- assay_text: cell-based or functional assay
quantity_measured: % of control after 240 min (intact peptide by RP-HPLC after incubation with NEP) (%)

# binder, measured
data = [
    ("EEEEEESGGGGSGGGKGANQKGLSKGCFGLKLDRIGSMSGLGC [C7(E6) [BC7]]", 98),
    ("EEEEEESGGGGSGGGQGANKKGLSKGCFGLKLDRIGSMSGLGC [C8(E6) [BC8]]", 103),
    ("GLSKGCFGLKLDRIGSMSGLGC [human CNP22]", 0),
    ("EEEEEESGGGGSGGGQGANQKGLSKGCFGLKLDRIGSMSGLGC [C10(E6) [BC10]]", 102),
    ("EEEEEESGGGGSGGGGSGGGGGLSKGCFGLKLDRIGSMSGLGC [C1(E6) [BC1]]", 99),
    ("EEEEEESGGGGSGGGQGANKQGLSKGCFGLKLDRIGSMSGLGC [C11(E6) [BC11]]", 102),
    ("EEEEEESGGGGSGGGKGANKQGLSKGCFGLKLDRIGSMSGLGC [C6(E6) [BC6]]", 98),
    ("EEEEEESGGGGSGGGQGANQQGLSKGCFGLKLDRIGSMSGLGC [C5(E6) [BC5]]", 100),
]
